Values were extracted from patent US8124793B2.

tested on: human cancer cells; experiment: NCI screen summary over the cancers tested (negative growth of human cancer cells); assay type: cell-based; details: 10^−6 M conc.; cancers with negative growth / cancers tested
# reported Percentage of cancers showing negative growth cancers tested; entries follow
Could you give the number and then its unit, please?

Here's what some known entries look like.
1. CC=CC(=O)C1(C2=C(Cl)C(=O)c3ccccc3C2=O)S(=O)(=O)OCCOS1(=O)=O 25%
2. CC1=C(CC2(C(=O)C(F)(F)C(F)(F)C(F)(F)F)S(=O)(=O)OCCOS2(=O)=O)C(=O)c2ccccc2C1=O 100%

Qu. Provide value of Percentage of cancers showing negative growth cancers tested for this record tested with human cancer cells: CC(=O)C1(CC2=C(C)C(=O)c3ccccc3C2=O)S(=O)(=O)OCCOS1(=O)=O
Ans. 14%

Qu. Next compound: O=C(c1ccc2ccccc2c1)C1(I)S(=O)(=O)OCCOS1(=O)=O
Ans. 100%

---

system: COLO205; assay: NCI screen, growth of human tumor cells: Colon Cancer COLO205; format: cell-based; settings: COLO205 (Colon Cancer), 10^−4 molar
# reported percent of growth of human tumor cells; entries follow
# number only, unit % dropped from output

Here's what some known entries look like.
molecule	unitDescriptor	percent of growth of human tumor cells
CC=CC(=O)C1(Cc2ccc3c(c2)C(=O)c2ccccc2C3=O)S(=O)(=O)OCCOS1(=O)=O [NSC 731263]	%	5
CC1(C)OCC(COC(=O)C(=O)C2(C3=C(Cl)C(=O)c4ccccc4C3=O)S(=O)(=O)OCCOS2(=O)=O)O1 (stereo not shown) [NSC 737278]	%	−9
CC=CC(=O)C1(CC2=C(C)C(=O)c3ccccc3C2=O)S(=O)(=O)OCCOS1(=O)=O [NSC 731265]	%	−50
CCOCC1(CC2=C(C)C(=O)c3ccccc3C2=O)S(=O)(=O)OCCOS1(=O)=O [NSC 698124]	%	−25
CC=CC(=O)C1(C2=C(Cl)C(=O)c3ccccc3C2=O)S(=O)(=O)OCCOS1(=O)=O [NSC 731264]	%	30

Qu. Any idea what percent of growth of human tumor cells was measured for CC1=C(CC2(C(=O)C(=O)OCC3COC(C)(C)O3)S(=O)(=O)OCCOS2(=O)=O)C(=O)c2ccccc2C1=O (stereo not shown) [NSC 737277] ?
Ans. −8

Qu. Next molecule: O=C(c1ccccc1S(=O)(=O)O)C1S(=O)(=O)OCCOS1(=O)=O [NSC 693880]
Ans. 5

---

system: MCF7/ADR-RES; test: NCI screen, growth of human tumor cells: Breast Cancer MCF7/ADR-RES; assay type: cell-based; settings: MCF7/ADR-RES (Breast Cancer), 10^−4 molar
# reported percent of growth of human tumor cells; entries follow
# number only, unit % dropped from output

Here's what some known entries look like.
compound	unitDescriptor	percent of growth of human tumor cells
Cc1ccc2ccccc2c1CC1S(=O)(=O)OCCOS1(=O)=O [NSC 679043]	%	−12
O=C(c1ccccc1S(=O)(=O)O)C1S(=O)(=O)OCCOS1(=O)=O [NSC 693880]	%	4

Qu. Any idea what percent of growth of human tumor cells was measured for O=S1(=O)OCCOS(=O)(=O)C1c1cccc2cccnc12 [NSC 698122, ethylene 8-quinolylmethanedisulfonate] ?
Ans. −5

Qu. Next compound: O=C1C(Cl)=C(C2S(=O)(=O)OCCOS2(=O)=O)C(=O)c2ccccc21 [NSC 731260]
Ans. 25

Qu. Next compound: CC=CC(=O)C1(C2=C(Cl)C(=O)c3ccccc3C2=O)S(=O)(=O)OCCOS1(=O)=O [NSC 731264]
Ans. 20

Qu. Next compound: CCOCC1(COCC)S(=O)(=O)OCCOS1(=O)=O [NSC 698120]
Ans. −26

Qu. Next compound: CCOCC1(CC2=C(C)C(=O)c3ccccc3C2=O)S(=O)(=O)OCCOS1(=O)=O [NSC 698124]
Ans. 30

---

tested on: 786-0; assay: NCI screen, growth of human tumor cells: Renal Cancer 786-0; type: cell-based; settings: 786-0 (Renal Cancer), 10^−4 molar
testReadout: percent of growth of human tumor cells

Here's what some known entries look like.
compound	percent of growth of human tumor cells
O=S1(=O)OCCOS(=O)(=O)C1C1c2ccccc2-c2ccccc21 [NSC 686562, ethylene 9-fluorenylmethanedisulfonate]	2%
N#CCCC1(CCC#N)S(=O)(=O)OCCOS1(=O)=O [NSC 665941]	6%
CC1=C(CC2S(=O)(=O)OCCOS2(=O)=O)C(=O)c2ccccc2C1=O [NSC 693874]	−16%

Could you now consider this next compound?
Qu. Any idea what percent of growth of human tumor cells was measured for CC1(C)OCC(COC(=O)C(=O)OC(C(=O)OCC2COC(C)(C)O2)=C2S(=O)(=O)OCCOS2(=O)=O)O1 (stereo not shown) [NSC 737275] ?
Ans. 17%

---

system: OVCAR-4; assay: NCI screen, growth of human tumor cells: Ovarian Cancer OVCAR-4; assay type: cell-based; conditions: OVCAR-4 (Ovarian Cancer), 10^−4 molar
# reported percent of growth of human tumor cells; entries follow
# number only, unit % dropped from output

Qu. Any idea what percent of growth of human tumor cells was measured for N#CCCC1(CCC#N)S(=O)(=O)OCCOS1(=O)=O ?
Ans. 4

---

# reported percent of growth of human tumor cells; entries follow
tested on: MCF7/ADR-RES; assay: NCI screen, growth of human tumor cells: Breast Cancer MCF7/ADR-RES; assay type: cell-based; conditions: MCF7/ADR-RES (Breast Cancer), 10^−4 molar
Could you give the number and then its unit, please?

compound	percent of growth of human tumor cells
CC(=O)C1(CC2=C(C)C(=O)c3ccccc3C2=O)S(=O)(=O)OCCOS1(=O)=O	−40%
CC1=C(CC2(S(=O)(=O)C(F)(F)F)S(=O)(=O)OCCOS2(=O)=O)C(=O)c2ccccc2C1=O	1%
CC1(C)OCC(COC(=O)C(=O)C2(Cc3ccc4c(c3)C(=O)c3ccccc3C4=O)S(=O)(=O)OCCOS2(=O)=O)O1 (centres unmarked)	−29%

Qu. Any idea what percent of growth of human tumor cells was measured for C[Si](C)(OCCS(=O)(=O)O)C1S(=O)(=O)OCCOS1(=O)=O ?
Ans. 20%

Qu. Next compound: CC1=C(CC2S(=O)(=O)OCCOS2(=O)=O)C(=O)c2ccccc2C1=O
Ans. −41%

Qu. Next compound: CC=CC(=O)C1(Cc2ccc3c(c2)C(=O)c2ccccc2C3=O)S(=O)(=O)OCCOS1(=O)=O
Ans. 11%

Qu. Next compound: O=S1(=O)OCCOS(=O)(=O)C1Cc1nc2ccccc2[nH]1
Ans. 15%

Qu. Next compound: O=S1(=O)OCCOS(=O)(=O)C1C1c2ccccc2-c2ccccc21 [NSC 686562, ethylene 9-fluorenylmethanedisulfonate]
Ans. −7%

---

tested on: HCT-15; test: NCI screen, growth of human tumor cells: Colon Cancer HCT-15; format: cell-based; conditions: HCT-15 (Colon Cancer), 10^−4 molar
# reported percent of growth of human tumor cells; entries follow
# number only, unit % dropped from output

Here's what some known entries look like.
compound	testResult
O=S1(=O)OCCOS(=O)(=O)C1c1cccc2cccnc12 [NSC 698122, ethylene 8-quinolylmethanedisulfonate]	18
N#CCCC1(CCC#N)S(=O)(=O)OCCOS1(=O)=O	27

Could you now consider this next compound?
Qu. Any idea what percent of growth of human tumor cells was measured for CCOCC1(COCC)S(=O)(=O)OCCOS1(=O)=O ?
Ans. −27

---

test system: OVCAR-5; test: NCI screen, growth of human tumor cells: Ovarian Cancer OVCAR-5; assay type: cell-based; conditions: OVCAR-5, 10^−4 molar
testReadout: % Growth (%)
# number only, unit % dropped from output

Here's what some known entries look like.
compound	assaySystem	testReadout	testResult
Cc1ccc2ccccc2c1CC1S(=O)(=O)OCCOS1(=O)=O	OVCAR-5	% Growth	−98
CC1=C(CC2S(=O)(=O)OCCOS2(=O)=O)C(=O)c2ccccc2C1=O	OVCAR-5	% Growth	−98
CC=CC(=O)C1(CC2=C(C)C(=O)c3ccccc3C2=O)S(=O)(=O)OCCOS1(=O)=O	OVCAR-5	% Growth	−83
CC=CC(=O)C1(C2=C(Cl)C(=O)c3ccccc3C2=O)S(=O)(=O)OCCOS1(=O)=O	OVCAR-5	% Growth	−49
CC1(C)OCC(COC(=O)C(=O)C2(Cc3ccc4c(c3)C(=O)c3ccccc3C4=O)S(=O)(=O)OCCOS2(=O)=O)O1 (stereo not shown)	OVCAR-5	% Growth	−89
CC1=C(CC2(S(=O)(=O)C(F)(F)F)S(=O)(=O)OCCOS2(=O)=O)C(=O)c2ccccc2C1=O	OVCAR-5	% Growth	−87

Could you now consider this next compound?
Qu. Any idea what % Growth was measured for CC1=C(CC2(C(=O)C(F)(F)C(F)(F)C(F)(F)F)S(=O)(=O)OCCOS2(=O)=O)C(=O)c2ccccc2C1=O ?
Ans. −71
